# Tested on: MDA-MB-435
Your answer must be one of the following: active, inactive

Examples with answers:
compound | measuredOn | label
CC(=O)ON1CCCC(P(=O)(OCOC(=O)C(C)(C)C)OCOC(=O)C(C)(C)C)C1=O (centres undefined) | MDA-MB-435 | inactive
CN(C)CCCC1(c2ccc(F)cc2)OCc2cc(-c3cccc4[nH]ccc34)ccc21 (centres undefined) | MDA-MB-435 | inactive
O=C1NC(=N[C@@H](CO)c2ccccc2)S/C1=C\c1ccc2ncccc2c1 | MDA-MB-435 | inactive
CNCc1cccc2c1OCCOCCOCCN(C)S(=O)(=O)c1ccc(cc1)-c1cnc(N)c(n1)C(=O)N2 | MDA-MB-435 | inactive
COc1cc2c(cc1Nc1nc(N3CCc4ccccc43)c3cc[nH]c3n1)N(C(=O)CN(C)C)CC2 | MDA-MB-435 | inactive

We now examine a further compound.
INPUT: Called result for Cc1cccc(NC(=O)c2sc3nc4c(cc3c2N)C(=O)CCC4)c1
OUTPUT: active

These entries and their values trace back to PubChem BioAssay (NCI).
